# measurement-target: T1, CD79b endogenously expressed on the cell surface (malignant B cell lines, normal B cells in PBMC, CLL … (human, UniProt P40259 29-229))
# T1 construct: whole, on cells; On cells CD79b stands in the B-cell receptor complex with CD79a and surface Ig; also called cell surface CD79b; endogenous CD79b
# T1 sequence (looked up): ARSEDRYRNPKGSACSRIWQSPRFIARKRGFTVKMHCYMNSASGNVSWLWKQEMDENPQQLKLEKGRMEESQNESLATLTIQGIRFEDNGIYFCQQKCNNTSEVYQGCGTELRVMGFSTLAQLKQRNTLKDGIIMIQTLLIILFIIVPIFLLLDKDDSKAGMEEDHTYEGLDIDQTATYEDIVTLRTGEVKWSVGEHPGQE
# measurement-description: flow cytometry on PBMC of Donor 2890, B cells marked with CD19-BV421; anti-human IgG1-PE; MFI (PE); table under the graph
Could you please report measured pEC50 for the items listed next?
One number for each entry, as −log10 of the molar value.

Worked cases, pEC50 given:
binder	measurement-type	assay-result
ch23D8 (antibody, human IgG1, kappa, V domains shown, Rabbit/human chimeric IgG1 kappa; also called chimeric 23D8) VH: QSLEESGGGLVTPGGTLTLTCTVSGLSLSSNAINWVRQAPGKGLEWIGMIYSGGRIEYASWAKGRFTISKTSTTVDLKITSPTTEDTATYFCAKGMSPSAHSSDIWGPGTLVTVSA VL: AYDMTQTPASVEVAVGGTVTIKCQASQSISDNLSWYQQKPGQPPKLLIYDASDLASGVPSRFSGSGSGTEFTLTISDLEPADAATYYCQQDWISSNVDNTFGGGTEVVVKR	pEC50	8.98
polatuzumab (antibody, V domains shown) VH: EVQLVESGGGLVQPGGSLRLSCAASGYTFSSYWIEWVRQAPGKGLEWIGEILPGGGDTNYNEIFKGRATFSADTSKNTAYLQMNSLRAEDTAVYYCTRRVPIRLDYWGQGTLVTVSS VL: DIQLTQSPSSLSASVGDRVTITCKASQSVDYEGDSFLNWYQQKPGKAPKLLIYAASNLESGVPSRFSGSGSGTDFTLTISSLQPEDFATYYCQQSNEDPLTFGQGTKVEIKR	pEC50	8.81
ch48H10 (antibody, human IgG1, kappa, V domains shown, Rabbit/human chimeric IgG1 kappa; also called chimeric 48H10) VH: QSVKETGGGLVQPGGSLTLSCKASGFTINIDYWISWVRQAPGKGLEWIGIIDPGDGTTYFAIWVSGRFTISTDNAQNTVDLQMNSLTAADTATYFCAREFSASAYQYDLWGPGTLVTVSS VL: ALVMTQTPSSVSAAVGGTVSINCQASEDIESYLTWYQQKPGQPPKLLMYRASTLSSGVSSRFSASGSGTEFTLTISGVQPDDAATYYCQQGYRNKDVDNPFGGGTEVVVKR	pEC50	8.93

Please report the measured pEC50 for ch44G2 (antibody, human IgG1, kappa, V domains shown, Rabbit/human chimeric IgG1 kappa; also called chimeric 44G2) VH: QSVRETGGGLVQPGGSLKLSCKASGFTINIDYWISWVRQAPGKGLEWIGIIDPGDGTTYFAIWVSGRFTISFDNTQNTVDLQMNSLTAADTATYFCVREFSASAYQYDLWGPGTLVTVSS VL: DLVMTQTPSSVSAAVGGTVSINCRASEDIENYLAWYQQKPGQPPKLLIYRASTLSSGVSSRFSGSGSGTEFTLTISGVQPDDAATYYCQQGYRNSNVDNPFGGGTEMVVKR
9.17

Numbers sourced from patent US20260209346A1.
